molecular target: Fatty-acid amide hydrolase 1 (Homo sapiens) (UniProt O00519); assay: Irreversible inhibition of His-tagged human FAAH N-terminal transmembrane-deleted truncated form expressed in Escherichia coli assessed as ratio of Kinact to Ki by GDH-coupled FAAH assay
Sequence (O00519 whole entry, the tested form may be a part): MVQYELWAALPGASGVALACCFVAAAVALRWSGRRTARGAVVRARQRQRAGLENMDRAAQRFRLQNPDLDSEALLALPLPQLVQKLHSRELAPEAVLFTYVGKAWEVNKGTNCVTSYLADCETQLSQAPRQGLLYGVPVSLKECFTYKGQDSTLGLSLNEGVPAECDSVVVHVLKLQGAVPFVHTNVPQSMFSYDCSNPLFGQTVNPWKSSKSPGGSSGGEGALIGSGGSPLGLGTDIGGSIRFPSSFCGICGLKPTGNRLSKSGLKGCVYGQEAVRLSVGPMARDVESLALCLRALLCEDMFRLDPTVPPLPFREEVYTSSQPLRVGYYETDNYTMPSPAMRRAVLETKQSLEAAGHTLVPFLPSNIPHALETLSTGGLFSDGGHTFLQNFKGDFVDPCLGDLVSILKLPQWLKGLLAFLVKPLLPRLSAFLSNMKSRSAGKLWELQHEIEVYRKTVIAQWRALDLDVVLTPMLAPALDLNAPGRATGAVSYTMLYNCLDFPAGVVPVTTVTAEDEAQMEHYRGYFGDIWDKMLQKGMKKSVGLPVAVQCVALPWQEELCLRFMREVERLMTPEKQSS

{"compound": "O=C(Nc1cnccn1)N1CCC(=Cc2cccc(Oc3ccc(C(F)(F)F)cn3)c2)CC1", "system": "Fatty-acid amide hydrolase 1 (Homo sapiens) (UniProt O00519)", "Ratio / M⁻¹ s⁻¹": 42600}
{"compound": "O=C(Nc1cccnc1)N1CCC(Cc2cccc(Oc3ccc(C(F)(F)F)cn3)c2)C1 (centres undefined)", "system": "Fatty-acid amide hydrolase 1 (Homo sapiens) (UniProt O00519)", "Ratio / M⁻¹ s⁻¹": 88}
{"compound": "O=C(Nc1cccnn1)N1CCC(=Cc2cccc(Oc3ccc(C(F)(F)F)cc3)c2)CC1", "system": "Fatty-acid amide hydrolase 1 (Homo sapiens) (UniProt O00519)", "Ratio / M⁻¹ s⁻¹": 18900}
{"compound": "O=C(Nc1cccnn1)N1CCC(=Cc2cccc(Oc3ccccc3)c2)CC1", "system": "Fatty-acid amide hydrolase 1 (Homo sapiens) (UniProt O00519)", "Ratio / M⁻¹ s⁻¹": 1530}
{"compound": "Cc1noc(NC(=O)N2CCC(=Cc3cccc(Oc4ccc(C(F)(F)F)cn4)c3)CC2)c1C", "system": "Fatty-acid amide hydrolase 1 (Homo sapiens) (UniProt O00519)", "Ratio / M⁻¹ s⁻¹": 7990}
{"compound": "O=C(Nc1cccnc1)N1CCC(=Cc2cccc(Oc3ccc(C(F)(F)F)cn3)c2)CC1", "system": "Fatty-acid amide hydrolase 1 (Homo sapiens) (UniProt O00519)", "Ratio / M⁻¹ s⁻¹": 21600}
{"compound": "O=C(Nc1cccnc1)N1CCC/C(=C/c2cccc(Oc3ccc(C(F)(F)F)cn3)c2)C1", "system": "Fatty-acid amide hydrolase 1 (Homo sapiens) (UniProt O00519)", "Ratio / M⁻¹ s⁻¹": 35}
{"compound": "O=C(Nc1cccnn1)N1CCC(=Cc2cccc(Oc3ccc(C(F)(F)F)nc3)c2)CC1", "system": "Fatty-acid amide hydrolase 1 (Homo sapiens) (UniProt O00519)", "Ratio / M⁻¹ s⁻¹": 26600}
{"compound": "O=C(Nc1cccnc1)N1CC(=Cc2cccc(Oc3ccc(C(F)(F)F)cn3)c2)C1", "system": "Fatty-acid amide hydrolase 1 (Homo sapiens) (UniProt O00519)", "Ratio / M⁻¹ s⁻¹": 298}
